system-tested: Glutamate NMDA receptor; Grin1/Grin2b (Rattus norvegicus, UniProt P35439+Q00960)
Sequence (Q00960 whole entry, other chains not shown): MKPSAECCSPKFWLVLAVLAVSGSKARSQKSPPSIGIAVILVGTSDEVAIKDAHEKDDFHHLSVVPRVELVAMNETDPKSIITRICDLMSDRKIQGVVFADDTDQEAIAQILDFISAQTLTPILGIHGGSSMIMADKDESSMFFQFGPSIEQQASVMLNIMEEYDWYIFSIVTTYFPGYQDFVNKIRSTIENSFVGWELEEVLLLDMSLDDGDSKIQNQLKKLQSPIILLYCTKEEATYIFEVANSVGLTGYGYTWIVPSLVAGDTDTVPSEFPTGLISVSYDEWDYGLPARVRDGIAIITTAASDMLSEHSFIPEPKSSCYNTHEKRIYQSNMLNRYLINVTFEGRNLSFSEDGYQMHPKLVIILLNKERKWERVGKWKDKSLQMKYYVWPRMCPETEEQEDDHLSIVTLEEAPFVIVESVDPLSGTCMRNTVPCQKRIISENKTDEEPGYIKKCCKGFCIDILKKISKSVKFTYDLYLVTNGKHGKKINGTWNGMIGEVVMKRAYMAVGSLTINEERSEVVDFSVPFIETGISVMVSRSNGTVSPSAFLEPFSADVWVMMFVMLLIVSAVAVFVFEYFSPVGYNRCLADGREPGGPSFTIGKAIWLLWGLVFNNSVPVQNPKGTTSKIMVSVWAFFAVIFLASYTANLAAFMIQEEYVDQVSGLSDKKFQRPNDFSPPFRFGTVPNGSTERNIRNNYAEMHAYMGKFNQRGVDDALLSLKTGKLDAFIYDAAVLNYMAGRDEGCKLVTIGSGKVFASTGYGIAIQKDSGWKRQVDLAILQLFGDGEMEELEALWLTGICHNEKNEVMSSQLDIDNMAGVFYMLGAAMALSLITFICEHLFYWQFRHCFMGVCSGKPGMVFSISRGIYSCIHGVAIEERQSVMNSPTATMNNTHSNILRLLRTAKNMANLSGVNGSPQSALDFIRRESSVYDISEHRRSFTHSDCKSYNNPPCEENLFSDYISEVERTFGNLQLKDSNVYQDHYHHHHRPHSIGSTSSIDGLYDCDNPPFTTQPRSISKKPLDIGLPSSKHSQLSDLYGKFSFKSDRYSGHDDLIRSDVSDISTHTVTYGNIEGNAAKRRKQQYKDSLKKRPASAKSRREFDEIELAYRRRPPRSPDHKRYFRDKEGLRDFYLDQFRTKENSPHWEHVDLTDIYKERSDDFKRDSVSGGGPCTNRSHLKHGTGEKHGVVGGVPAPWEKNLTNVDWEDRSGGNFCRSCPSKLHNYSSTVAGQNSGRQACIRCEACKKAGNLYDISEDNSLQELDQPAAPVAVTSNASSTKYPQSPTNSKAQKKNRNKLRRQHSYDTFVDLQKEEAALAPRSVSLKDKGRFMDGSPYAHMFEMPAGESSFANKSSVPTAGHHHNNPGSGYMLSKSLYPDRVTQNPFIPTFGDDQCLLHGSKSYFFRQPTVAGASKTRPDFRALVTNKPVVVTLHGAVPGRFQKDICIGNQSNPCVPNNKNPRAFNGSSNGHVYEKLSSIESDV
experimental-protocol: Antagonist activity at rat recombinant NR1-NR2B receptor expressed in Xenopus oocytes at holding potential of -40mV by two-electrode voltage-clamp electrophysiology
Format: functional, cell-based, Oocyte
measurement-conditions: read-out: IC50
readout-label: log10 IC50 (log10 of the value in µM)
Scale: decimal log of IC50, IC50 in µM.

Below are worked cases with known answers.
stdin: Give the reported log10 IC50 for this compound. "O=C(O)c1ccc(-n2c(/C=C/c3cccc([N+](=O)[O-])c3)nc3ccc(-c4ccccc4)cc3c2=O)cc1"
stdout: 0.48

stdin: Give the reported log10 IC50 for this compound. "COc1ccc(/C=C/c2nc3ccccc3c(=O)n2-c2ccc(C(=O)O)cc2)cc1"
stdout: 1.99

stdin: Give the reported log10 IC50 for this compound. "O=C(O)c1ccc(-n2c(/C=C/c3ccccc3O)nc3ccccc3c2=O)cc1"
stdout: 1.26

Okay, next one:
stdin: Give the reported log10 IC50 for this compound. "O=C(O)c1ccc(-n2c(/C=C/c3ccc4ccccc4c3)nc3ccccc3c2=O)cc1"
stdout: 1.49

----------
system-tested: Glutamate receptor 1 (Rattus norvegicus)
Sequence (P19490 whole entry): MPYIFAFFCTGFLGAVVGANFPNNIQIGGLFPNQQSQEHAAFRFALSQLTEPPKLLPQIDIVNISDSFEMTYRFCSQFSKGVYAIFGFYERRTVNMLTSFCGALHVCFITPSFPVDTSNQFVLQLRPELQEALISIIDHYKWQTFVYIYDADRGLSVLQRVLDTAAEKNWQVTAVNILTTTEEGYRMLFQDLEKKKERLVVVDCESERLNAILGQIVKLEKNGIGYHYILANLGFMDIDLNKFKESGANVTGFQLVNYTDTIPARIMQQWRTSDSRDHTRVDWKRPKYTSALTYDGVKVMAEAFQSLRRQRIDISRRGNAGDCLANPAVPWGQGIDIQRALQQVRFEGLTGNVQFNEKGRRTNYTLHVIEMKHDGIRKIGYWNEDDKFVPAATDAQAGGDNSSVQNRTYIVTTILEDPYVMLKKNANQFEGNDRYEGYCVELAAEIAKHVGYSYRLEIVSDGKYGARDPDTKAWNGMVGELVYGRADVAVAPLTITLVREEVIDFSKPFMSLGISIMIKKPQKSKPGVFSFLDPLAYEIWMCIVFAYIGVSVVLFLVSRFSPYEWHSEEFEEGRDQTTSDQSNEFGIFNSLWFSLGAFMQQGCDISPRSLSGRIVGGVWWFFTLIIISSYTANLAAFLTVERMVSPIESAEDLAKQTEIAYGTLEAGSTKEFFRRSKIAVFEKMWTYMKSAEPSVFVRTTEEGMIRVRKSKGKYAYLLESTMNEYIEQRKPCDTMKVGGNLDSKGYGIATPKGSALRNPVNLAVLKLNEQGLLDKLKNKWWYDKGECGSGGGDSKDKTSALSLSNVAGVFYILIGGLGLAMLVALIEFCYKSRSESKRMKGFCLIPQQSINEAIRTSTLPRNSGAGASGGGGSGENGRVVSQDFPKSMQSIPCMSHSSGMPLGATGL
experimental-protocol: Antagonist activity at rat recombinant GLuR1 expressed in Xenopus oocytes assessed as inhibition of glutamate-induced current by two-electrode voltage-clamp electrophysiology
pIC50: −log10 of the molar value.
readout-label: pIC50

stdin: Give the reported pIC50 for this compound. "Cc1ccc(/C=C/c2nc3ccccc3c(=O)n2-c2ccc(C(=O)O)cc2)cc1"
stdout: < 3.52

stdin: Give the reported pIC50 for this compound. "O=C(O)c1ccccc1-n1c(/C=C/c2cccc([N+](=O)[O-])c2)nc2ccccc2c1=O"
stdout: < 3.52

stdin: Give the reported pIC50 for this compound. "COc1ccccc1-n1c(/C=C/c2cccc([N+](=O)[O-])c2)nc2ccccc2c1=O"
stdout: < 3.52

stdin: Give the reported pIC50 for this compound. "O=C(O)c1ccc(-n2c(/C=C/c3ccc([N+](=O)[O-])cc3)nc3ccc(I)cc3c2=O)cc1"
stdout: < 3.52

stdin: Give the reported pIC50 for this compound. "O=c1c2ccccc2nc(/C=C/c2cccc([N+](=O)[O-])c2)n1-c1ccccc1"
stdout: < 3.52

stdin: Give the reported pIC50 for this compound. "COc1ccc2nc(/C=C/c3cccc([N+](=O)[O-])c3)n(-c3ccc(C(N)=O)cc3)c(=O)c2c1"
stdout: < 3.52

stdin: Give the reported pIC50 for this compound. "COc1ccc2nc(/C=C/c3ccc([N+](=O)[O-])cc3)n(-c3ccc(C(=O)O)cc3)c(=O)c2c1"
stdout: < 3.52

stdin: Give the reported pIC50 for this compound. "O=C(O)COc1ccc(/C=C/c2nc3ccccc3c(=O)n2-c2ccc(C(=O)O)cc2)cc1"
stdout: < 3.52

stdin: Give the reported pIC50 for this compound. "COc1ccc2nc(/C=C/c3cccc([N+](=O)[O-])c3)n(-c3ccc(C#N)cc3)c(=O)c2c1"
stdout: < 3.52

stdin: Give the reported pIC50 for this compound. "O=C(O)c1ccc(-n2c(/C=C/c3cccc(C(F)(F)F)c3)nc3ccccc3c2=O)cc1"
stdout: 4.66

---
stdin: Give the reported pIC50 for this compound. "O=C(O)c1ccc(-n2c(/C=C/c3cccnc3)nc3ccc(I)cc3c2=O)cc1"
stdout: 4.21

stdin: Give the reported pIC50 for this compound. "O=C(O)c1ccc(-n2c(/C=C/c3cccc([N+](=O)[O-])c3)nc3cc4c(cc3c2=O)OCO4)cc1"
stdout: < 3.52

stdin: Give the reported pIC50 for this compound. "O=C(O)c1ccc(-n2c(/C=C/c3cccc([N+](=O)[O-])c3)nc3ccccc3c2=O)cc1"
stdout: 4.49

stdin: Give the reported pIC50 for this compound. "O=C(O)c1ccc(-n2c(/C=C/c3ccc(OC(F)F)cc3)nc3ccccc3c2=O)cc1"
stdout: 3.68

----------
Species on record: Rattus norvegicus
experimental-protocol: Selectivity ratio of IC50 for rat recombinant NR1-NR2A receptor to IC50 for rat recombinant NR1-NR2D receptor
readout-label: Ratio IC50
Could you keep your reply to the number by itself?

Below are worked cases with known answers.
stdin: Give the reported Ratio IC50 for this compound. "O=C(O)c1ccc(-n2c(/C=C/c3cccc4ccccc34)nc3ccccc3c2=O)cc1"
stdout: 4

stdin: Give the reported Ratio IC50 for this compound. "O=C(O)c1cccc(-n2c(/C=C/c3cccc([N+](=O)[O-])c3)nc3ccc(I)cc3c2=O)c1"
stdout: 8

stdin: Give the reported Ratio IC50 for this compound. "COc1cccc(/C=C/c2nc3ccc(OC)cc3c(=O)n2-c2ccc(C(=O)O)cc2)c1"
stdout: 8

stdin: Give the reported Ratio IC50 for this compound. "O=C(O)c1ccc(-n2c(/C=C/c3ccc4ccccc4c3)nc3ccccc3c2=O)cc1"
stdout: 4

stdin: Give the reported Ratio IC50 for this compound. "COc1cccc(/C=C/c2nc3ccccc3c(=O)n2-c2ccc(C(=O)O)cc2)c1"
stdout: 3

---
stdin: Give the reported Ratio IC50 for this compound. "O=C(O)c1ccc(-n2c(/C=C/c3cccc([N+](=O)[O-])c3)nc3ccc(I)cc3c2=O)cc1"
stdout: 18

stdin: Give the reported Ratio IC50 for this compound. "COc1cccc(-n2c(/C=C/c3cccc([N+](=O)[O-])c3)nc3ccccc3c2=O)c1"
stdout: 2

stdin: Give the reported Ratio IC50 for this compound. "COc1ccccc1/C=C/c1nc2ccccc2c(=O)n1-c1ccc(C(=O)O)cc1"
stdout: 6

stdin: Give the reported Ratio IC50 for this compound. "O=C(O)c1ccc(-n2c(/C=C/c3cccc([N+](=O)[O-])c3)nc3ccc(-c4cccs4)cc3c2=O)cc1"
stdout: 52

stdin: Give the reported Ratio IC50 for this compound. "O=C(O)c1ccc(-n2c(/C=C/c3cccc([N+](=O)[O-])c3)nc3cc4c(cc3c2=O)OCO4)cc1"
stdout: 3

stdin: Give the reported Ratio IC50 for this compound. "O=C(O)c1ccc(-n2c(/C=C/c3ccc(C(F)(F)F)cc3)nc3ccccc3c2=O)cc1"
stdout: 4

stdin: Give the reported Ratio IC50 for this compound. "O=C(O)c1ccc(-n2c(/C=C/c3cccc(O)c3)nc3ccccc3c2=O)cc1"
stdout: 3

----------
Species: Rattus norvegicus
experimental-protocol: Selectivity ratio of IC50 for rat recombinant GLuR1 to IC50 for rat recombinant NR1-NR2D receptor
Note to self: values exactly at 10 are YES. So Ratio IC50 at or above 10 is YES, below is NO.

Recorded results for 8 compounds are shown here.
stdin: State whether the measured Ratio IC50 reaches 10, counting equality as reaching it, for "COc1ccc(-n2c(/C=C/c3cccnc3)nc3ccc(I)cc3c2=O)cc1"
stdout: NO

stdin: State whether the measured Ratio IC50 reaches 10, counting equality as reaching it, for "CCCc1ccc2nc(/C=C/c3cccc([N+](=O)[O-])c3)n(-c3ccc(C(=O)O)cc3)c(=O)c2c1"
stdout: YES

stdin: State whether the measured Ratio IC50 reaches 10, counting equality as reaching it, for "O=C(O)c1ccc(-n2c(/C=C/c3cccc([N+](=O)[O-])c3)nc3ccc(Br)cc3c2=O)cc1"
stdout: NO

stdin: State whether the measured Ratio IC50 reaches 10, counting equality as reaching it, for "O=c1c2cc(I)ccc2nc(/C=C/c2cccnc2)n1-c1cccc([N+](=O)[O-])c1"
stdout: NO

stdin: State whether the measured Ratio IC50 reaches 10, counting equality as reaching it, for "O=C(O)c1ccc(-n2c(/C=C/c3cccnc3)nc3ccc(I)cc3c2=O)cc1"
stdout: YES

stdin: State whether the measured Ratio IC50 reaches 10, counting equality as reaching it, for "Cc1ccc2nc(/C=C/c3cccc([N+](=O)[O-])c3)n(-c3ccc(C(=O)O)cc3)c(=O)c2c1"
stdout: YES

stdin: State whether the measured Ratio IC50 reaches 10, counting equality as reaching it, for "O=C(O)c1cccc(-n2c(/C=C/c3cccnc3)nc3ccc(I)cc3c2=O)c1"
stdout: YES

stdin: State whether the measured Ratio IC50 reaches 10, counting equality as reaching it, for "COc1cccc(/C=C/c2nc3ccc(OC)cc3c(=O)n2-c2ccc(C(=O)O)cc2)c1"
stdout: YES

---
stdin: State whether the measured Ratio IC50 reaches 10, counting equality as reaching it, for "Cc1ccc(-n2c(/C=C/c3cccnc3)nc3ccc(I)cc3c2=O)cc1"
stdout: NO

stdin: State whether the measured Ratio IC50 reaches 10, counting equality as reaching it, for "COc1ccccc1-n1c(/C=C/c2cccc([N+](=O)[O-])c2)nc2ccccc2c1=O"
stdout: NO

stdin: State whether the measured Ratio IC50 reaches 10, counting equality as reaching it, for "O=c1c2cc(I)ccc2nc(/C=C/c2cccnc2)n1-c1ccccc1"
stdout: NO

----------
Below is a list of entries, each paired with its recorded IC50 value.
system-tested: Glutamate receptor 1 (Rattus norvegicus)
experimental-protocol: Antagonist activity at rat recombinant GLuR1 expressed in Xenopus oocytes assessed as inhibition of glutamate-induced current by two-electrode voltage-clamp electrophysiology

Below are worked cases with known answers.
stdin: Provide measured IC50 on Glutamate receptor 1 (Rattus norvegicus) for "COc1ccc(-n2c(/C=C/c3cccc([N+](=O)[O-])c3)nc3ccccc3c2=O)cc1" please.
stdout: 178 µM

stdin: Provide measured IC50 on Glutamate receptor 1 (Rattus norvegicus) for "O=C(O)c1ccc(-n2c(/C=C/c3cccc([N+](=O)[O-])c3)nc3ccc(-c4ccccc4)cc3c2=O)cc1" please.
stdout: 5 µM

stdin: Provide measured IC50 on Glutamate receptor 1 (Rattus norvegicus) for "O=C(O)c1ccc(-n2c(/C=C/c3cccc([N+](=O)[O-])c3)nc3cccc(Cl)c3c2=O)cc1" please.
stdout: > 300 µM

stdin: Provide measured IC50 on Glutamate receptor 1 (Rattus norvegicus) for "COc1cccc(-n2c(/C=C/c3cccc([N+](=O)[O-])c3)nc3ccccc3c2=O)c1" please.
stdout: > 300 µM

stdin: Provide measured IC50 on Glutamate receptor 1 (Rattus norvegicus) for "C=CCOc1ccc(/C=C/c2nc3ccccc3c(=O)n2-c2ccc(C(=O)O)cc2)cc1" please.
stdout: > 300 µM

stdin: Provide measured IC50 on Glutamate receptor 1 (Rattus norvegicus) for "O=C(O)c1ccc(-n2c(/C=C/c3ccc4c(c3)OCCO4)nc3ccccc3c2=O)cc1" please.
stdout: > 300 µM

stdin: Provide measured IC50 on Glutamate receptor 1 (Rattus norvegicus) for "COc1ccccc1-n1c(/C=C/c2ccc([N+](=O)[O-])cc2)nc2ccccc2c1=O" please.
stdout: > 300 µM

stdin: Provide measured IC50 on Glutamate receptor 1 (Rattus norvegicus) for "COc1ccc2nc(/C=C/c3cccc([N+](=O)[O-])c3)n(-c3ccc(C(=O)O)cc3)c(=O)c2c1" please.
stdout: > 300 µM

---
stdin: Provide measured IC50 on Glutamate receptor 1 (Rattus norvegicus) for "O=c1c2cc(I)ccc2nc(/C=C/c2cccnc2)n1-c1cccc([N+](=O)[O-])c1" please.
stdout: > 300 µM

stdin: Provide measured IC50 on Glutamate receptor 1 (Rattus norvegicus) for "Cc1ccccc1-n1c(/C=C/c2cccnc2)nc2ccc(I)cc2c1=O" please.
stdout: 83 µM

Cited source: ChEMBL document CHEMBL1212913
